PROTOCOL_DETAILS: yeast display, Sf9 membrane polyspecificity reagent, FACS + sequencing; frameworks hold sequencing errors
TEST_READOUT: polyreactivity (PSR sort gate)

Some solved entries appear below for comparison.
QVHLVESGGGLVQAGVSLRLSCPASGIIFWFYAMGWYRQSPGKERQLVAAISGDGDSTYYADSVKGRFTISRDNAKNTVYLQMNSLKPEDTAVYYCAAEWDPVFATDEDDYWGQRTQVTVSS ... low polyreactivity
QVQLVESGGGLVQAGGSLRLSCAASGSNYPPNAMGWYRQAPGKEREFVASITSSGGITNYADSVKGRFTISRDNAKNTVYLQMNSLKPVDTAVYYCAAKYYGGTRFRPYGYWGQGTQVTVSS ... high polyreactivity
QVQLVESGGGLVQAGGSLRLSCAASGRTFYNYAMVWYRQAPGKERELVAAIDWGSDSTYYADSVKGRFTISRDNAKNTVYLQMNSLKPEDTAVYYCAAYLVSVYSRTYDYWGQGTQVTVSS ... low polyreactivity
QVQLVESGGGLVHAGGSLRLSCAASGLTFAYNTMGWYRQAPGKEREFVASISSSGGNTYYADSVKGRFTISRDNAKNTVYVQMNSLKPEDTAVYFCAAKKKYHYVASYKRFEYWGQGTQVTVSS ... low polyreactivity

polyreactivity (PSR sort gate) reading for `QVQLVESGGGLVQAGGSLRLSCAASGFTFEDYAMGWYRQAPGTERELVAAISSRGTSTYYADSVKGRFTISRDNAKNTVYLQMNSLKPEDTAVYYFNKRGWYPYGYWGQGTQVTVSS` : high polyreactivity

polyreactivity (PSR sort gate) reading for `QVQLVESGGGLVQAGGSLLLSCAASGRIFYGNAMGWYRQAPGKERELVAPISSGTSTNYADSVKGRFTISRDNGKNTVYLQMNSLKPEDTAVYYCAAGSYSRYLYSLYFDFDYWGQGTQVTVSS` : low polyreactivity

polyreactivity (PSR sort gate) reading for `QVQLVESGGGLVQAGGSLRLRCAASGSIFYLYAMGWFRRAPGKERELVAASSRSGASTYYADSVKGRFTISRDNAKNTVYLQMNSLKPEDTAVYYGAADYNSQLARIYDYWGQGTQVTVSS` : low polyreactivity

polyreactivity (PSR sort gate) reading for `QVQLVVSGGGLVQAGGSLRLSCAASGSTFSLNAMGWYRQAPGKERELVAVITRGTSTYYADSVKGRFTISRDNAKNTVYLQMNRLTPEDNAVYYCAAAVWWSVVWAARYGYWGQGTQVTVSS` : low polyreactivity

polyreactivity (PSR sort gate) reading for `QVQLVESGGGLVQAGGSLRLSCAASGITFGRNTMGWYRQAPGKERELVAAIDSGGNTYADSVKGRFTISRDNAKNTVYLQMNSLKPEDTAVYYCNARSYYGYGRYDYWGQGTQVTVSS` : low polyreactivity

polyreactivity (PSR sort gate) reading for `QVQLVESGGGLVQAGGSLRLSCAASGLTFYLYVMGWYRQAPWKERELVAAISRRGGSTYYADSVKGRFTISRDNAKNTVYLQMNSLKPEDTAVYYCAARVYGTYRGIQYGYWGQGTQVTVSS` : high polyreactivity

polyreactivity (PSR sort gate) reading for `QVQLVESGGGLVQAGGTLRFSCAASGLTIDRYAMGWYRQAPGKERELVAAISFTGDRTYYADSVKGRFTISRDNAKNTVYLQMNSLKPEDTAVYYCAVRRYGYRKYDSWGQGTQVTVSS` : high polyreactivity
